# System: K562
# run.description: NCI tumour cell line growth inhibition, 48 h
Active and inactive are the calls of the source. Cut-off read from the data, not from the text of the source: active = GI50 up to about 1.1 µM and inactive = higher.
reported.endpoint: GI50

compound=Oc1ccc2ccccc2c1/N=N/c1ccc(F)cc1 target_or_test_system=K562 result="> 100 µM (inactive)"
compound=N#Cc1c(-c2ccccc2)cc(-c2ccc(N)cc2)[nH]c1=O target_or_test_system=K562 result="> 100 µM (inactive)"
compound=OC1(c2cc3ccccc3s2)CCCCC1 target_or_test_system=K562 result="34.4 µM (inactive)"
compound=CCCN1C(=O)/C(=C\c2ccc(OC)c(OC)c2)S/C1=N\c1ccccc1 target_or_test_system=K562 result="> 100 µM (inactive)"
compound=Cc1cc(C)nc(NS(=O)(=O)c2ccc(NNc3c4ccccc4nc4c(C(=O)Nc5ccc(S(=O)(=O)Nc6cc(C)on6)cc5)cccc34)cc2)n1 target_or_test_system=K562 result="34.5 µM (inactive)"
compound=O=C(O)CCc1nn2c(nc1=O)sc1ccc3ccccc3c12 target_or_test_system=K562 result="> 100 µM (inactive)"
compound="Cc1nn(C(=O)c2ccc(Cl)cc2)c2c1C(c1ccco1)SC(=N)N2 (centres undefined)" target_or_test_system=K562 result="> 10 µM (inactive)"
compound="CC(C)Cc1ccc(C(C)/C=C2\\CCC(CN3CCCCC3)C2=O)cc1 (centres undefined)" target_or_test_system=K562 result="2.46 µM (inactive)"
compound=Cc1[nH]n(C2=NCCN2)c(=O)c1Cc1ccccc1 target_or_test_system=K562 result="> 100 µM (inactive)"
compound="CCCN(CCC)C1CCc2c(ccc3cc[nH]c23)C1 (centres undefined)" target_or_test_system=K562 result="30.5 µM (inactive)"
compound="CC(=O)NCC1OC2COC(c3ccccc3)OC2C2N=C(c3ccccc3)OC12 (centres undefined)" target_or_test_system=K562 result="32.6 µM (inactive)"
compound=COc1ccc2nc3cc(Cl)ccc3c(NCCCCCC(=O)NC(COc3cnc4c(ccc5cccnc54)c3)COc3cnc4c(ccc5cccnc54)c3)c2c1 target_or_test_system=K562 result="3.43 µM (inactive)"
compound=O=C1C(=O)N(c2cccc(C(F)(F)F)c2)C(=O)C(=O)C1c1nc2ccccc2s1 target_or_test_system=K562 result="51.2 µM (inactive)"
compound=CC(=O)O[C@H]1C(=O)[C@@]2(C)[C@H]([C@H](OC(=O)c3cccc(C(F)(F)F)c3)[C@]3(O)C[C@H](OC(=O)[C@H](O)[C@@H](NC(=O)c4ccccc4)c4ccccc4)C(C)=C1C3(C)C)[C@]1(OC(C)=O)CO[C@@H]1C[C@@H]2O target_or_test_system=K562 result="< 0.0025 µM (active)"
compound="CC(C)=NOC(=O)CNC(=O)C(Cc1ccccc1)NC(=O)C(C)NC(=O)OC(C)(C)C (centres undefined)" target_or_test_system=K562 result="> 100 µM (inactive)"
compound=O=C(O)[C@@H]1OCCOCCO[C@@H](C(=O)O)[C@H](C(=O)O)OCCOCCO[C@H]1C(=O)O target_or_test_system=K562 result="> 72.3 µM (inactive)"
compound=Cc1ccc(Nc2cn(COCc3ccccc3)c(=O)[nH]c2=O)cc1 target_or_test_system=K562 result="> 100 µM (inactive)"
compound=Cc1cccc2c(=O)cc(-c3ccccc3)[nH]c12 target_or_test_system=K562 result="2 µM (inactive)"
compound="C=C(C(=O)O[C@H]1C/C(C)=C/CC/C(CO)=C/[C@H]2C(=O)OC(=C)[C@H]12)C(O)CO (some centres undefined)" target_or_test_system=K562 result="4.08 µM (inactive)"

# credit: ChEMBL document CHEMBL1201862
